Data origin, for the record: the RNAGym collection of RNA variant scans (doi:10.1126/science.aae0568)

B1: tRNA (parent)
chain: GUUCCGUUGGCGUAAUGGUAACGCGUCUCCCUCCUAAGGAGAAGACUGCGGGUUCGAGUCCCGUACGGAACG

variants of: B1; assay: yeast fitness relative to wild type (ratio to wild type); higher = fitter; tRNA-Arg(CCU), competitive growth, 37 C, YPD
Fewer inactive variants are shown than the library holds.
Note to self: values exactly at 0.6 are t. So yeast fitness at or above 0.6 is t, below is f.

Observe how each entry below is paired with its result.
variant_designation	class_assignment
U7A A15G G23A G51A C55A C66U	f
G9A G17A C22G A40G G41C	f
A37G C46U U59G	f
G9C U53A C66U	f
C31G A43G C49U C61A	f

Decide: yeast fitness of U2A U16G C66U >= 0.6?
t

Form field: yeast fitness at least 0.6? Entry: G48A C49U C62U A69U
f

yeast fitness >= 0.6 for U3C A40U C49A C62A ?
f

Reported yeast fitness at or above 0.6? G10C C24A C61U
f

Say whether A14G C27U U28C shows yeast fitness of 0.6 or more.
f
